Source listed as ChEMBL document CHEMBL4673248.

# experimental system: Gonadotropin-releasing hormone receptor (Homo sapiens)
# Sequence (P30968 whole entry): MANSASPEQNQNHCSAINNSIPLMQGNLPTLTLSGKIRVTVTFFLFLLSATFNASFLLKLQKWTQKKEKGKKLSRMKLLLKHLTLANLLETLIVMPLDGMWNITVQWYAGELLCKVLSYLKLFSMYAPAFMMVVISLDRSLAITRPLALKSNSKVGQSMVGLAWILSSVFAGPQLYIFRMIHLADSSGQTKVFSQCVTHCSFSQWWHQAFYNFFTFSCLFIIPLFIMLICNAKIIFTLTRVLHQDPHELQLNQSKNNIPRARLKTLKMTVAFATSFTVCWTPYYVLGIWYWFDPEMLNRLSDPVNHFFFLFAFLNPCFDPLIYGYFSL
# experiment summary: Antagonist activity at human GnRH receptor expressed in CHO-K1 cells assessed as inhibition of LHRH-induced response preincubated for 20 mins followed by LHRH addition and measured after 60 mins by TR-FRET assay
# Format: cell-based
pIC50: −log10 of the molar value.
parameter: pIC50

Some solved cases for reference:
| compound | experimental system | parameter | recorded value |
| --- | --- | --- | --- |
| COc1ccc(S(=O)(=O)N2c3ccc(C(=O)NCc4ccccc4Cl)cc3C(C)(C)C2C)cc1 (stereo in doubt; form 1) | Gonadotropin-releasing hormone receptor (Homo sapiens) | pIC50 | 6.25 |
| CC(=O)N1CCC2(CC1)c1cc(C(=O)NCc3ccccc3Cl)ccc1N(S(C)(=O)=O)C2C (racemic) | Gonadotropin-releasing hormone receptor (Homo sapiens) | pIC50 | 5.00 |
| COc1ccc(S(=O)(=O)N2c3ccc(C(=O)NCc4ccccc4Cl)cc3C3(CCN(C(C)=O)CC3)C2C)cc1 (stereo in doubt; form 3) | Gonadotropin-releasing hormone receptor (Homo sapiens) | pIC50 | 7.82 |

1. CC1N(S(=O)(=O)c2ccc(F)cc2)c2ccc(NC(=O)c3cccnc3)cc2C12CCOCC2 (racemic)
2. O=C(NCc1ncccc1Cl)c1ccc2c(c1)C1(CCS(=O)(=O)CC1)C(C1CC1)N2S(=O)(=O)c1ccc(F)cc1 (racemic)
Inquiry: Please let me know which one, 1 or 2 , has a lower measured pIC50 value. Let me know the label of the one you choose.
Reply text: 2
(2: 7.05, 1: 7.28)
